B1: his-tagged human full-length kindlin2 [human] / his/Avi-tagged cytoplasmic tail of ephrinB2 WT [modified: biotinylated; biotinylated] [not stated] (parent complex)
chain 1: MALDGIRMPDGCYADGTWELSVHVTDLNRDVTLRVTGEVHIGGVMLKLVEKLDVKKDWSDHALWWEKKRTWLLKTHWTLDKYGIQADAKLQFTPQHKLLRLQLPNMKYVKVKVNFSDRVFKAVSDICKTFNIRHPEELSLLKKPRDPTKKKKKKLDDQSEDEALELEGPLITPGSGSIYSSPGLYSKTMTPTYDAHDGSPLSPTSAWFGDSALSEGNPGILAVSQPITSPEILAKMFKPQALLDKAKINQGWLDSSRSLMEQDVKENEALLLRFKYYSFFDLNPKYDAIRINQLYEQAKWAILLEEIECTEEEMMMFAALQYHINKLSIMTSENHLNNSDKEVDEVDAALSDLEITLEGGKTSTILGDITSIPELADYIKVFKPKKLTLKGYKQYWCTFKDTSISCYKSKEESSGTPAHQMNLRGCEVTPDVNISGQKFNIKLLIPVAEGMNEIWLRCDNEKQYAHWMAACRLASKGKTMADSSYNLEVQNILSFLKMQHLNPDPQLIPEQITTDITPECLVSPRYLKKYKNKQITARILEAHQNVAQMSLIEAKMRFIQAWQSLPEFGITHFIARFQGGKKEELIGIAYNRLIRMDASTGDAIKTWRFSNMKQWNVNWEIKMVTVEFADEVRLSFICTEVDCKVVHEFIGGYIFLSTRAKDQNESLDEEMFYKLTSGWV
chain 2: KYRRRHRKHSPQHTTTLSLSTLATPKRSGNNNGSEPSDIIIPLRTADSVFCPHYEKVSGDYGHPVYIVQEMPPQSPANIYYKV

Variants of: B1
ASSAY DETAILS: in vitro binding assay (pulldown on NeutrAvidin beads, Western blot densitometry); purified kindlin2; n = 3; read off a plot
OUTCOME MEASURE: percent of parent

>>> val("chain 2 KYRRRHRKHSPQHTTTLSLSTLATPKRSGNNNGSEPSDIIIPLRTADSVFCPHYEKVSGDYGHPVYIVQEMPPQSPAAIYYKV")
"~107 % WT"
>>> val("chain 2 KYRRRHRKHSPQHTTTLSLSTLATPKRSGNNNGSEPSDIIIPLRTADSVFCPHYEKVSGDYGHPVYIVQEMPPQSPAAIYAKV")
"~36 % WT"
>>> val("chain 2 KYRRRHRKHSPQHTTTLSLSTLATPKRSGNNNGSEPSDIIIPLRTADSVFCPHYEKVSGDYGHPVYIVQEMPPQSPANIYAKV")
"~61 % WT"
>>> val("chain 2 KYRRRHRKHSPQHTTTLSLSTLATPKRSGNNNGSEPSDIIIPLRTADSVFCPHYEKVSGDYGHPVYIVQEMPPQAPANIYYKV")
"~105 % WT"

Now examine the next entry.
# input Fill blank: measured percent of parent of the variant chain 2 KYRRRHRKHSPQHTTTLSLSTLATPKRSGNNNGSEPSDIIIPLRTADSVFCPHYEKVSGDYGHPVYIVQEMPPQSPAAAAAKV is ____.
# output ~14 % WT
